biological target: TDP-43 (Homo sapiens, UniProt Q13148 1-414); assay: RNA Bind-n-Seq with designed 260-mer pool; 25 mM Tris-HCl, 150 mM KCl, 3 mM MgCl2, BSA (printed 500 mg/mL), 20 units/mL SUPERase IN; pH not stated; 500 nM RNA pool, 1 h, 4 C; TDP-43 5, 50, 500 nM; high values mean tight binding; details: protein: recombinant; tags: SBP (GST cleaved off with PreScission; pGEX-GST-SBP)
Sequence (Q13148 whole entry): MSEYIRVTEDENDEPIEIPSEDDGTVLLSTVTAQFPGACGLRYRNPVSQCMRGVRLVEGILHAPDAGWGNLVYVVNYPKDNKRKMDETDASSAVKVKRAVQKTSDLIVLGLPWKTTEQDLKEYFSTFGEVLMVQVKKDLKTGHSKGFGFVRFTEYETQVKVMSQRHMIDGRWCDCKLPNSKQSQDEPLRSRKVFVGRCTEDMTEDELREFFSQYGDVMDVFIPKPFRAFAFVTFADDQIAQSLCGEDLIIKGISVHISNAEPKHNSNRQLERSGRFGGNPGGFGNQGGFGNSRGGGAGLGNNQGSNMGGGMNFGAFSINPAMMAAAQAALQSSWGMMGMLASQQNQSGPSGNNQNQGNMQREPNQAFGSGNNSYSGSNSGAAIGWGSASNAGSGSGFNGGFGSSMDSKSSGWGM
Whole data set: some 9,900 sequences, median “r (bound/input frequency ratio)” near 0.7, cut for the highest 2% near 6.5. The sample as a whole holds a higher share of the highest values than the screen did.
The entries below come with measured binding signal values attached.

Binder	binding signal
ENSMUSG00000061578.39|Ksr2 (ssRNA) RNA: GGGAGUUCUACAGUCCGACGAUCGCUUCGAUAUCCGCAUGCUAAGGGUCCCAUGUGUGGUGUGAAGGAGCCACAGACUGAGCACACCACCUCGGACUGUGGAGACCAAGACACAUGCCCAGUGGGCAGACUCAGACUCACACGCUGGACCAGUGUGUGCGCAUGUGUCUACACAUGGACAGGGCCAACUGCUAUCCUUCUGCCUGGACGAGCCAGCUGUGGAGUGUCCCAGCUGUGCUAUCCUGGAACACAGAACCAGGAUGGAACCAGAAACAAUACACCUGCUCCGUUGUCAAGGCUUCUACUCUUGCGGUCGCACUAGUGUGGAAUUCUCGGGUGUCAAGG	0.764 R (bound/input frequency ratio)
ENSMUSG00000029636.430|Wasf3 (ssRNA) RNA: GGGAGUUCUACAGUCCGACGAUCGCUUCGAUAUCCGCAUGCUAGUGGAUACAUGGAUGAGUGGAUGGGUGGAUUGGUGGGUGAGUGGAUAGGUGAAUGGAUGAUAGGUGGUGGAUGGUUGAGUGGGUGGAUUCAUGAUGGAUGGAUGGAUGGAUGGAUGGAUGGAUGGAUGGAUGAGUGGAUGGAUAAUAGGUUGAUGGGUGGAUAGGUAGAUGAGUGAAUAGAUAGAUAUAGAUCAGUGGGAGGAUUGGAAAGUAGGUGAAUGAAUGGAUGGCAGAUAGAUGGAUCAAUUACAGAUGGAUGGCUCUUGCGGUCGCACUAGUGUGGAAUUCUCGGGUGUCAAGG	4.31 R (bound/input frequency ratio)
ENSMUSG00000061578.1090|Ksr2 (ssRNA) RNA: GGGAGUUCUACAGUCCGACGAUCGCUUCGAUAUCCGCAUGCUAAGCAGCCAACCAUGAAAAUAGAGGUUUGUAAUGUACAGAAGGCUGGGGGAGCUUUCAGGGGUGUGGCCAGUUAUGUACAGAUGUGAAGCUGAGGUCUGAAGGAAAUGGAGGAAGUAGGAAGAUCAGACUGGUUGAAUUAGAAGUCUGUCACUCUAGGUGCUAAGUGACCUUGGACCCAGUCAGUUCUUGGAUUUCUGUUGUAGCCCAGGCUAGCCUCGAACCCUUGAUCCUCCUGUUCCUGGUAGAGAAACAGCCACUAACUCUUGCGGUCGCACUAGUGUGGAAUUCUCGGGUGUCAAGG	1.34 R (bound/input frequency ratio)
ENSMUSG00000042529.383|Kcnj12 (ssRNA) RNA: GGGAGUUCUACAGUCCGACGAUCGCUUCGAUAUCCGCAUGCUAGGGUUUCAUGCUCACCAACCUGAACUGGUCAGGCUGGAUGCUGGCCACAGACAUGAUCAGUCCGACUUGAGUCCCUGCCCUGCCCUGGUUAUGCAGGCUGUACGACGCAGUGUGCAUCAGUCUGAGGAGUCUGGUGGUAAGUAAGCCUCUGCAGCAGACCCUGUCGGAGGCCAUGGGGGCGUGUGUGUGUGUGUGUGUGUGUGUGUGUGUGUGUGUGUGUGUGUGUGUGUGUGAACAUGUGUGAGGGUGUGGAGGUCCCACUCUUGCGGUCGCACUAGUGUGGAAUUCUCGGGUGUCAAGG	8.12 R (bound/input frequency ratio)

Origin of values: paper PMC12864922
